Hello, the source for this data is PubChem BioAssay AID1209, in case you need it.

biological target: Mannose-6-phosphate isomerase (Homo sapiens) (UniProt P34949); test: inhibitors of human PMI, primary screen, biochemical, fluorescence intensity, coupled assay (AID 1209); details: purified PMI enzyme, at 20 µM, stronger effect = higher value;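 further: plate controls were DMSO vehicle for no effect and wells lacking substrate for full effect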
Sequence (P34949 whole entry, looked up): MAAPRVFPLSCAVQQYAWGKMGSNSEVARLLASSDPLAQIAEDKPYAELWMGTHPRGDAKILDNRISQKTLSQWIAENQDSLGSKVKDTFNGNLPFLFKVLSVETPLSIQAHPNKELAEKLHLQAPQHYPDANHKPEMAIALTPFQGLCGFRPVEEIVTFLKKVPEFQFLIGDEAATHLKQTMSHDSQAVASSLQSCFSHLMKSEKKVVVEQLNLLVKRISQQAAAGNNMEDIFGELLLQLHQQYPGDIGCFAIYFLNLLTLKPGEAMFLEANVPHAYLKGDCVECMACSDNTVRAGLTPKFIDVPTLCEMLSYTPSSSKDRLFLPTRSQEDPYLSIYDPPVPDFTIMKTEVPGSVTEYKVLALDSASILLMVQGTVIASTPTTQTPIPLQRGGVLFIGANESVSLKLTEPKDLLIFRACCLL
Out of some 190,000 compounds screened, about 810 (0.43%) were called active. Shown is part of a subset that was picked to be rich in actives.
ENDPOINT_NAME: inhibition

compound="CC1(C#CC[N+]2(C)CCCCC2)CCC2C(O1)c1ccccc1OC2(C)C (stereo unspecified)" measured_target="Mannose-6-phosphate isomerase (Homo sapiens) (UniProt P34949)" test_result="105% (active)"
compound=c1ccc(OCc2nnc3n2N=C(c2ccccc2)CS3)cc1 measured_target="Mannose-6-phosphate isomerase (Homo sapiens) (UniProt P34949)" test_result="47.7% (inactive)"
compound="CCNC(=O)NC(=O)C(C)SCc1ccccc1C (stereo unspecified)" measured_target="Mannose-6-phosphate isomerase (Homo sapiens) (UniProt P34949)" test_result="-8.4% (inactive)"
compound="COc1c(C(O)CC(C)C)ccc2c1C(=O)OCc1cc(C)cc(O)c1O2 (stereo unspecified)" measured_target="Mannose-6-phosphate isomerase (Homo sapiens) (UniProt P34949)" test_result="23.7% (inactive)"
compound=COc1ccc(OCc2nnc3n2N=C(c2ccc(OC)cc2)CS3)cc1 measured_target="Mannose-6-phosphate isomerase (Homo sapiens) (UniProt P34949)" test_result="-9.9% (inactive)"

Continue with the compound presented below.
Field inhibition (entry C[N+]1(CC#CC(O)(c2ccccc2)c2ccccc2)CCCC1 ) reads 21.6% (inactive)
